Please go through the items and note down their viability.
experiment: reducers of endogenous Her2 protein level, primary screen, SKBR3 breast tumor cells, AlphaScreen, ATP viability (AID 461); conditions: 18-24 h, measured here: SKBR3 viability, ATP luminescence, at 10 µM;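 also: percent of carrier control wells set as 100% viability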
Return type: number; implicit unit %.

Query :: Retrieve viability measured for "Clc1cc2c(c(Cn3cnc4ccccc43)c1)OCOC2" and print it.
Result :: 109

Query :: Retrieve viability measured for "CCCCC(=O)NCCNc1nc2c(c(=O)n(C)c(=O)n2C)n1Cc1ccccc1" and print it.
Result :: 116

Query :: Retrieve viability measured for "O=C(NCc1ccco1)c1csc(Nc2ccccc2Cl)n1" and print it.
Result :: 70.5

Query :: Retrieve viability measured for "Cc1cc(Cl)c(S(=O)(=O)NC2CCCCC2)cc1OCC(=O)Nc1nncs1" and print it.
Result :: 107

Query :: Retrieve viability measured for "CCc1ccc(C=NC23CN4CN(CN(C4)C2)C3)s1" and print it.
Result :: 108

Query :: Retrieve viability measured for Cc1cc(C)n(CC2CC(=O)N(c3ccc(Cl)c(Cl)c3)C2=O)n1 (stereo unspecified) and print it.
Result :: 112
